B1: Glucocorticoid receptor, residues 419 to 494; numbered along this chain, P04150 (parent)
chain: KLCLVCSDEASGCHYGVLTCGSCKVFFKRAVEGQHNYLCAGRNDCIIDKIRRKNCPACRYRKCLQAGMNLEARKTK

Variants of: B1
Procedure summary: abundance fitness (aPCA) (normalised: wild type 0, dead -1); higher = more abundant; growth selection in yeast, the domain comes from the species named
Run conditions: Homo sapiens
Please go through the items and note down their abundance fitness.
One number for each entry.

These recorded examples may help you get a feel for the data.
Let me know recorded abundance fitness for C20H , thanks.
-0.918

Recall and state the measured abundance fitness for L4H .
-0.141

Specify abundance fitness for L38K and stop.
0.033

Provide each entry's abundance fitness from the list below.
1. F27V
2. F26R
3. V17R
4. Y15E

[-0.386, -0.758, -0.141, -0.067]

I have 3 variants here; please give me abundance fitness for each one.
1. H35A
2. L64N
3. Y60V

[0.018, -0.083, -0.215]

Working through the 3 variants below one at a time, give abundance fitness for each.
1. C58H
2. L2A
3. N54H

[-0.701, 0.056, 0.011]
